The reported numbers originate from patent US20210221899A1.

- EXPERIMENTAL SYSTEM: T1, human NGF (human, UniProt P01138 122-241)
- T1 construct: also called human Nerve Growth Factor; hN
- T1 chain: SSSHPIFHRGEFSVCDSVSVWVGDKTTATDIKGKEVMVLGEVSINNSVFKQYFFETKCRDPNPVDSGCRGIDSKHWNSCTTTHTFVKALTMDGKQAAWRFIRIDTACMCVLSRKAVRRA
- TEST DESCRIPTION: SPR (Biacore T200), 100 nM mAb on NGF chip, similarity to parent mAb
- Source text: The region of an antibody responsible for antigen recognition represents the paratope. A paratope is created by a combination of amino acids in the complementarity determining regions (CDRs) of both the heavy and light chain variable regions. The binding between antibody and antigen is often mediated by side chains of CDR residues with side chains or carbohydrate moieties of the antigen. […]
TEST READOUT: Percent Similarity Score (KD on hN) (%)
Kindly answer with a numeric value in %, unit omitted.

// Percent Similarity Score (KD on hN) lookup, key: can9L12VH_G33A (antibody, V domains shown) VH: EVQLVESGGDLVKPGGSLRLSCVASGFTFSSHAMHWVRQSPGKGLQWVAVINSGGSSTYYTDAVKGRFTISRDNAKNTVYLQMNSLRAEDTAMYYCAKESVGGWEQLVGPHFDYWGQGTLVIVSS VL: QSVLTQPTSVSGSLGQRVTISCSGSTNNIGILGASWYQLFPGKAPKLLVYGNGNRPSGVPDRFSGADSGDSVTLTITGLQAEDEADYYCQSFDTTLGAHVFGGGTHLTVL 100
